The measured values listed here are drawn from paper PMC8039949.

- assayInfo: Pharmacokinetics study, plasma and brain concentration by LC-MS/MS
- Type: in vivo
- conditionNotes: male, mouse, sc; C57BL/6 mice; subcutaneous 3 mg/kg; brain; read-out: T1/2 in brain (converted)
- Protocol: Male C57BL/6 mice (age of 6-8 weeks with bodyweight 21-23 g; N = 24) were purchased from JH Laboratory Animal Co. LTD. Subcutaneous injection dosing solution was prepared by diluting C004019 stock solution in 20% HP-β-CD in saline. […] The concentration of C004019 in plasma and brain was determined using liquid chromatograph mass spectrometry/mass spectrometry (LC-MS/MS) with a UPLC/MS-MS-015 (QTRAP 5500).
recordedMetric: half-life (h)
Numbers only, in h.

Item CC(=O)N1CCCN(c2nc(NCCc3cccs3)nc(N(C)CC(=O)NCCOCCOCCOCC(=O)N[C@H](C(=O)N3C[C@H](O)C[C@H]3C(=O)NCc3ccc(-c4scnc4C)cc3)C(C)(C)C)n2)CC1 [C004019] has what recorded half-life?
1.29

* * *

- assayInfo: Pharmacokinetics study, plasma and brain concentration by LC-MS/MS
- Format: in vivo
- conditionNotes: male, mouse, sc; C57BL/6 mice; subcutaneous 3 mg/kg; plasma; read-out: MRTINF in plasma
recordedMetric: MRT inf (h)
Numbers only, in h.

Item CC(=O)N1CCCN(c2nc(NCCc3cccs3)nc(N(C)CC(=O)NCCOCCOCCOCC(=O)N[C@H](C(=O)N3C[C@H](O)C[C@H]3C(=O)NCc3ccc(-c4scnc4C)cc3)C(C)(C)C)n2)CC1 [C004019] has what recorded MRT inf?
1.87

* * *

- assayInfo: Pharmacokinetics study, plasma and brain concentration by LC-MS/MS
- Assay type: in vivo
- conditionNotes: male, mouse, sc; C57BL/6 mice; subcutaneous 3 mg/kg; plasma; read-out: T1/2 in plasma (converted)
recordedMetric: half-life
State the result as a value with its unit after it.

Item CC(=O)N1CCCN(c2nc(NCCc3cccs3)nc(N(C)CC(=O)NCCOCCOCCOCC(=O)N[C@H](C(=O)N3C[C@H](O)C[C@H]3C(=O)NCc3ccc(-c4scnc4C)cc3)C(C)(C)C)n2)CC1 has what recorded half-life?
79.8 min

* * *

- assayInfo: Pharmacokinetics study, plasma and brain concentration by LC-MS/MS
- Format: in vivo
- conditionNotes: male, mouse, sc; C57BL/6 mice; subcutaneous 3 mg/kg; plasma; read-out: Tmax in plasma
recordedMetric: Tmax (min)
Numbers only, in min.

Item CC(=O)N1CCCN(c2nc(NCCc3cccs3)nc(N(C)CC(=O)NCCOCCOCCOCC(=O)N[C@H](C(=O)N3C[C@H](O)C[C@H]3C(=O)NCc3ccc(-c4scnc4C)cc3)C(C)(C)C)n2)CC1 has what recorded Tmax?
10

* * *

- assayInfo: Pharmacokinetics study, plasma and brain concentration by LC-MS/MS
- Type: in vivo
- conditionNotes: male, mouse, brain/plasma, sc; C57BL/6 mice; subcutaneous 3 mg/kg; read-out: ratio of brain tissue maximal concentration to the plasma maximal concentration (Kpuu value)
- Method: Male C57BL/6 mice (age of 6-8 weeks with bodyweight 21-23 g; N = 24) were purchased from JH Laboratory Animal Co. LTD. Subcutaneous injection dosing solution was prepared by diluting C004019 stock solution in 20% HP-β-CD in saline. […] The concentration of C004019 in plasma and brain was determined using liquid chromatograph mass spectrometry/mass spectrometry (LC-MS/MS) with a UPLC/MS-MS-015 (QTRAP 5500).
recordedMetric: brain-to-plasma Cmax ratio
One number for each entry.

Item CC(=O)N1CCCN(c2nc(NCCc3cccs3)nc(N(C)CC(=O)NCCOCCOCCOCC(=O)N[C@H](C(=O)N3C[C@H](O)C[C@H]3C(=O)NCc3ccc(-c4scnc4C)cc3)C(C)(C)C)n2)CC1 [C004019] has what recorded brain-to-plasma Cmax ratio?
0.00866

* * *

- assayInfo: Pharmacokinetics study, plasma and brain concentration by LC-MS/MS
- Format: in vivo
- conditionNotes: male, mouse, sc; C57BL/6 mice; subcutaneous 3 mg/kg; plasma; read-out: AUClast in plasma
- Method: Male C57BL/6 mice (age of 6-8 weeks with bodyweight 21-23 g; N = 24) were purchased from JH Laboratory Animal Co. LTD. Subcutaneous injection dosing solution was prepared by diluting C004019 stock solution in 20% HP-β-CD in saline. […] The concentration of C004019 in plasma and brain was determined using liquid chromatograph mass spectrometry/mass spectrometry (LC-MS/MS) with a UPLC/MS-MS-015 (QTRAP 5500).
recordedMetric: AUC(0-t)
State the result as a value with its unit after it.

Item CC(=O)N1CCCN(c2nc(NCCc3cccs3)nc(N(C)CC(=O)NCCOCCOCCOCC(=O)N[C@H](C(=O)N3C[C@H](O)C[C@H]3C(=O)NCc3ccc(-c4scnc4C)cc3)C(C)(C)C)n2)CC1 [C004019] has what recorded AUC(0-t)?
1190 ng·h/mL
